The values you see were collected from patent US20160287712A1.

Overview of reported Cmax across a group of compounds:
Experiment: Pharmacokinetics after oral administration to rats with jugular vein and portal vein catheters
Type: in vivo, Male Sprague-Dawley rats
Conditions: male, Sprague-Dawley, rat, in vivo, po, 30 mg/kg, Portal Cmax, parent compound
Give the number; ng/mL is assumed, so skip it.

>  <compound>
CC/C=C\C/C=C\C/C=C\C/C=C\C/C=C\CCCC(=O)N1CC[C@H](NC(=O)c2cccnc2)C1

>  <measured>
5320

$$$$
>  <compound>
CC/C=C\C/C=C\C/C=C\C/C=C\C/C=C\CCCC(=O)NCCNC(=O)c1cccnc1 [Compound I-8, reference compound]

>  <measured>
756

$$$$

Problem: Which Cmax value belongs to CC/C=C\C/C=C\C/C=C\C/C=C\C/C=C\CCCC(=O)N[C@H]1CCN(C(=O)c2cccnc2)C1 ?
Result: 2600

Problem: Entry CC/C=C\C/C=C\C/C=C\C/C=C\C/C=C\CCCC(=O)N1CCN(C(=O)c2cccnc2)CC1 please
Result: 6070

Problem: And the next one, CC/C=C\C/C=C\C/C=C\C/C=C\C/C=C\CCCC(=O)N(C)CCNC(=O)c1cccnc1 ?
Result: 4520
